meta.source: the kinase profiling compilation of Christmann-Franck et al. (2016)

- EXPERIMENTAL TARGET: CDC42BPA (human)
- EXPERIMENT SUMMARY: radiometric filter-binding kinase assay, Kinase HotSpot
- SETTINGS: compound 0.5 µM; ATP 10 µM
ASSAY READOUT: residual activity (%)
Numeric only. Scale: %

QUERY: Lab note: need residual activity for N#C/C(=C\c1ccc(O)c(O)c1)C(=O)NCc1ccccc1 on CDC42BPA (human), anyone have it?
RESULT: 99.4

QUERY: Lab note: need residual activity for c1ccc2c(-c3ccncc3)c[nH]c2c1 on CDC42BPA (human), anyone have it?
RESULT: 99.9

QUERY: Lab note: need residual activity for COc1ccc(C(=O)Nc2sc3c(c2C(N)=O)CCCC3)cc1OC on CDC42BPA (human), anyone have it?
RESULT: 81.8

QUERY: Lab note: need residual activity for CN(C)S(=O)(=O)c1ccc2c(c1)/C(=C/c1cc3c([nH]1)CCCC3)C(=O)N2 on CDC42BPA (human), anyone have it?
RESULT: 92.3
